- system: C-C chemokine receptor type 2 (Homo sapiens, UniProt P41597)
- Sequence (P41597 whole entry): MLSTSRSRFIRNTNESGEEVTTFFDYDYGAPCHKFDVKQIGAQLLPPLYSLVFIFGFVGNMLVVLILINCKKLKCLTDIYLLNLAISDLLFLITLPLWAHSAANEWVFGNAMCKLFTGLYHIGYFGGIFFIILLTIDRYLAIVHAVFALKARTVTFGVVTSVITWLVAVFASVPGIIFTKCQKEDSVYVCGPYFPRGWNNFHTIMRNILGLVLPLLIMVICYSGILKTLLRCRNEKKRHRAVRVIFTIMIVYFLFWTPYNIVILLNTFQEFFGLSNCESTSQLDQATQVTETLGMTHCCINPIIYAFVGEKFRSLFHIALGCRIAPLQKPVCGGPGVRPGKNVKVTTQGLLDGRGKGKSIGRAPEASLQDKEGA
- protocol-text: Displacement of [3H]-CCR2-RA-[R] from human CCR2 expressed in human U2OS cells incubated for 2 hrs by scintillation spectrometric method
- Assay type: cell-based
- study-conditions: read-out: pKi (converted)
The following compounds are listed with their measured log10(Ki) values.
Log scale reminder: Ki in nM, then log10 taken.

Lookup result for Cc1ccc(-c2[nH]c3nc(N)nn3c(=O)c2Cc2cccc(Cl)c2)cc1 ; measured log10(Ki): 2.19

Lookup result for CCCCCCCc1[nH]c2nc(N)nn2c(=O)c1Cc1cccc(Cl)c1 ; measured log10(Ki): 2.24

Lookup result for Cc1[nH]c2nc(N)nn2c(=O)c1Cc1cccc(Cl)c1 ; measured log10(Ki): 1.22

Lookup result for Nc1nc2[nH]c(C3CC3)c(Cc3cccc(C(F)(F)F)c3)c(=O)n2n1 ; measured log10(Ki): 0.74

More entries:
Lookup result for CCCc1[nH]c2nc(N)nn2c(=O)c1Cc1cccc(Cl)c1 ; measured log10(Ki): 0.54

Lookup result for Nc1nc2[nH]c(C3CC3)c(Cc3cccc(Br)c3)c(=O)n2n1 ; measured log10(Ki): -0.08

Lookup result for Nc1nc2[nH]c(C3CC3)c(Cc3ccccc3)c(=O)n2n1 ; measured log10(Ki): 0.73

Lookup result for Nc1nc2[nH]c(CCc3ccccc3)c(Cc3cccc(Cl)c3)c(=O)n2n1 ; measured log10(Ki): 1.71
